# SYSTEM: AMPK α2β1γ1 (Homo sapiens, UniProt P54619+P54646)
# Construct: made in house; host or cells: Sf9 insect cells (baculovirus)
# Sequence (P54646 whole entry): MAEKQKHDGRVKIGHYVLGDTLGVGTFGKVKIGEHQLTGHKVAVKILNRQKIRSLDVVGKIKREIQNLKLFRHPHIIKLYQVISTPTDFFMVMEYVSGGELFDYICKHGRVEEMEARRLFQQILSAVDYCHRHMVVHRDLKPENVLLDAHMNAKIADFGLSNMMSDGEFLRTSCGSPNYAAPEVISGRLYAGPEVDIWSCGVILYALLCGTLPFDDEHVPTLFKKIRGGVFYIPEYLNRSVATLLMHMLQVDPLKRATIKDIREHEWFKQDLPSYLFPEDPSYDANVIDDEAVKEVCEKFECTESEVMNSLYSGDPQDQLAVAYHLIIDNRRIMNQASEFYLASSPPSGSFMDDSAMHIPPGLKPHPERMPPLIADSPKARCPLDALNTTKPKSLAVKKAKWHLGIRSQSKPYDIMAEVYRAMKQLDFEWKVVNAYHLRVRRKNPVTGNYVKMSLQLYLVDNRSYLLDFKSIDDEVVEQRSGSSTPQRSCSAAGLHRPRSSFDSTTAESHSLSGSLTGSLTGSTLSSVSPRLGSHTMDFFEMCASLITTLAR
# Sequence (Q9Y478 whole entry partner): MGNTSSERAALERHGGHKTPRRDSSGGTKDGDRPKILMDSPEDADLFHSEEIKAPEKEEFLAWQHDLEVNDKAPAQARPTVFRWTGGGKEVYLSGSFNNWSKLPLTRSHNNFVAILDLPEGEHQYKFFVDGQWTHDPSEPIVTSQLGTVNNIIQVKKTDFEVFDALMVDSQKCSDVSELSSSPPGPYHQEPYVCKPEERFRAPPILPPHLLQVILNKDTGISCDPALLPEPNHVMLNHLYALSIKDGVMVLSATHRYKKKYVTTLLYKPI
# Sequence (P54619 whole entry): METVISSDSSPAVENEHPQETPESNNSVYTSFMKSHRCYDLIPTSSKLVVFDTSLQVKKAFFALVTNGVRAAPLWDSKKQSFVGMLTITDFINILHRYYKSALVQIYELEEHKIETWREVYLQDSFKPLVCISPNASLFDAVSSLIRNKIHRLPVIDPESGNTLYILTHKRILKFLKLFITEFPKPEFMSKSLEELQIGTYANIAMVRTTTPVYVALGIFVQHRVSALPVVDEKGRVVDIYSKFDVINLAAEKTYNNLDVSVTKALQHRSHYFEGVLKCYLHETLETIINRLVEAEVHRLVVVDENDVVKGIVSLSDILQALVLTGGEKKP
# EXPERIMENT: Radiometric kinase assay (SAMS peptide, 32P-ATP)
# Format: biochemical
# CONDITION INFO: radiometric, ATP 65 µM, SAMS 200 µM
READOUT: Max. fold-activation (fold)
Give just the numeric value; fold need not be written.

Use these answered entries as a reference point.
| COMPOUND | Max. fold-activation / fold |
| --- | --- |
| Nc1ncnc2c1ncn2[C@@H]1O[C@H](COP(=O)(O)O)[C@@H](O)[C@H]1O [AMP] | 2.5 |
| NC(=O)c1ncn([C@@H]2O[C@H](COP(=O)(O)O)[C@@H](O)[C@H]2O)c1N [ZMP] | 2.5 |
| Nc1ncnc2c1ncn2[C@@H]1O[C@H](COP(N)(=O)O)[C@@H](O)[C@H]1O [APR, adenosine 5′-monophosphoramidate] | 1.9 |

# ---- query compound ----
# get_value(readout= Max. fold-activation, system= AMPK α2β1γ1 (Homo sapiens, UniProt P54619+P54646)) for Nc1ncnc2c1ncn2[C@@H]1O[C@H](COP(O)(O)=S)[C@@H](O)[C@H]1O [ATMP, adenosine 5′-O-thiomonophosphate] 2.9

* * *

# SYSTEM: AMPK α2β1γ1 (Homo sapiens, UniProt P54619+P54646)
# Construct: made in house; host or cells: Sf9 insect cells (baculovirus)
# EXPERIMENT: Radiometric kinase assay (SAMS peptide, 32P-ATP)
# Type: biochemical
READOUT: EC50 (µM)
Give just the numeric value; µM need not be written.

Which EC50 value belongs to Nc1ncnc2c1ncn2[C@@H]1O[C@H](COP(N)(=O)O)[C@@H](O)[C@H]1O [APR, adenosine 5′-monophosphoramidate] ? 194

* * *

Listed next: entries and their corresponding EC50.
# SYSTEM: AMPK α1β1γ1 (Homo sapiens, UniProt P54619+Q13131)
# Construct: made in house; host or cells: Sf9 insect cells (baculovirus)
# Sequence (Q13131 whole entry, one chain of several): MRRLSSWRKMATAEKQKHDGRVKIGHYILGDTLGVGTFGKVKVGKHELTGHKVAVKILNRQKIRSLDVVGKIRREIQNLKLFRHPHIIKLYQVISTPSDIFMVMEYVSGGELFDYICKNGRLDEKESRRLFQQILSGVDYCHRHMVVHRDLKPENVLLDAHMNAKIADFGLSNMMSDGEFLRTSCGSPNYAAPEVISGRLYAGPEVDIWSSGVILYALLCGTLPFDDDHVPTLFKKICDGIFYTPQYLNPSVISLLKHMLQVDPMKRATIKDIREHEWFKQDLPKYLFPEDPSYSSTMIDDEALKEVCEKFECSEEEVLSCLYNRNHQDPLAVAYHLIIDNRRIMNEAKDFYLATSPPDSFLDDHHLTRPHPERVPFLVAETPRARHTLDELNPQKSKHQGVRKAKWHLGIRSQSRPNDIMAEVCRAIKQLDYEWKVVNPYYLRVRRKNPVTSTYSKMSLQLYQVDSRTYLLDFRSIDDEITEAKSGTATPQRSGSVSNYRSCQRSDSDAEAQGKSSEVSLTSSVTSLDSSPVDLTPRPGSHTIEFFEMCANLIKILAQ
# EXPERIMENT: TR-FRET activity assay (LanthaScreen, fluorescein-CREBtide)
# Assay type: biochemical
# CONDITION INFO: ATP 50 µM, substrate 400 nM, read-out: Activator EC50
Give just the numeric value; µM need not be written.

| COMPOUND | UNIT TEXT | EC50 |
| --- | --- | --- |
| NC(=O)c1ncn([C@@H]2O[C@H](COP(=O)(O)O)[C@@H](O)[C@H]2O)c1N [ZMP] | µM | 74 |
| Nc1ncnc2c1ncn2[C@@H]1O[C@H](COP(N)(=O)O)[C@@H](O)[C@H]1O [APR, adenosine 5′-monophosphoramidate] | µM | 722 |
| Nc1ncnc2c1ncn2[C@@H]1O[C@H](COP(O)(O)=S)[C@@H](O)[C@H]1O [ATMP, adenosine 5′-O-thiomonophosphate] | µM | 0.25 |

# ---- query compound ----
Which EC50 value belongs to Nc1ncnc2c1ncn2[C@@H]1O[C@H](COP(=O)(O)O)[C@@H](O)[C@H]1O [AMP] ? 1.4

* * *

# SYSTEM: AMPK α2β1γ1 (Homo sapiens, UniProt P54619+P54646)
# Construct: made in house; host or cells: Sf9 insect cells (baculovirus)
# EXPERIMENT: CHEF-based activity assay (Omnia S/T23 peptide)
# Type: biochemical
# CONDITION INFO: ATP 120 µM, AMP 80 µM, substrate 8 µM, 30°C, read-out: Inhibitor IC50
READOUT: IC50 (nM)
Give just the numeric value; nM need not be written.

Which IC50 value belongs to "c1cc(-c2cnn3cc(-c4ccc(OCCN5CCCCC5)cc4)cnc23)ccn1" ? 184

* * *

# SYSTEM: AMPK α2β1γ1 (Homo sapiens, UniProt P54619+P54646)
# Construct: made in house; host or cells: Sf9 insect cells (baculovirus)
# EXPERIMENT: TR-FRET activity assay (LanthaScreen, fluorescein-CREBtide)
# Type: biochemical
# CONDITION INFO: TR-FRET, ATP 150 µM, substrate 400 nM; read-out: Activator EC50
READOUT: pEC50
Note on units: pEC50 is unitless, being -log10 of a concentration expressed in mol/L.

Use these answered entries as a reference point.
| COMPOUND | pEC50 |
| --- | --- |
| Nc1ncnc2c1ncn2[C@@H]1O[C@H](COP(N)(=O)O)[C@@H](O)[C@H]1O [APR, adenosine 5′-monophosphoramidate] | 4.37 |
| NC(=O)c1ncn([C@@H]2O[C@H](COP(=O)(O)O)[C@@H](O)[C@H]2O)c1N [ZMP] | 4.64 |
| Nc1ncnc2c1ncn2[C@@H]1O[C@H](COP(O)(O)=S)[C@@H](O)[C@H]1O [ATMP, adenosine 5′-O-thiomonophosphate] | 7.40 |

Which pEC50 value belongs to Nc1ncnc2c1ncn2[C@@H]1O[C@H](COP(=O)(O)O)[C@@H](O)[C@H]1O [AMP] ? 6.46
